- TARGET_DESC: UniProtKB Q00722
- ASSAY_NAME: PLC assay using FlashPlates (immobilized [3H]PIP2 substrate, 96-well)
- EXPERIMENTAL_CONTEXT: hydrolysis of immobilized [3H]PIP2; purified recombinant human PLC-β2 or cytosolic human PLC-β2
pIC50: −log10 of the molar value.
READOUT_LABEL: pIC50

INPUT_SMILES	TARGET_DESC	READOUT_LABEL	OBSERVED
O=C(Nc1ccccc1)Nc1cc(CO)ccc1N1CCN(C(c2ccc(F)cc2)c2ccc(F)cc2)CC1	UniProtKB Q00722	pIC50	< 5.00
CS(=O)(=O)c1ccc(N2CCN(C(c3ccccc3)c3ccccc3)CC2)c(NC(=O)Nc2ccccc2)c1	UniProtKB Q00722	pIC50	< 5.00
COC(=O)c1ccc(N2CCN(C(c3ccc(F)cc3)c3ccc(F)cc3)CC2)c(NC(=O)Nc2ccccc2)c1	UniProtKB Q00722	pIC50	< 5.00
Cc1oc(-c2ccc(Cl)cc2)cc1C(=O)Nc1cc(C(=O)N2CCNCC2)ccc1N1CCN(C(c2ccccc2)c2ccccc2)CC1	UniProtKB Q00722	pIC50	4.76

====

Entries and their IC50 values follow.
- TARGET_DESC: human PLC-β2 (Homo sapiens)
- Construct: made in house; host or cells: Sf9 cells (Spodoptera frugiperda), recombinant baculovirus
- Sequence (Q00722 whole entry): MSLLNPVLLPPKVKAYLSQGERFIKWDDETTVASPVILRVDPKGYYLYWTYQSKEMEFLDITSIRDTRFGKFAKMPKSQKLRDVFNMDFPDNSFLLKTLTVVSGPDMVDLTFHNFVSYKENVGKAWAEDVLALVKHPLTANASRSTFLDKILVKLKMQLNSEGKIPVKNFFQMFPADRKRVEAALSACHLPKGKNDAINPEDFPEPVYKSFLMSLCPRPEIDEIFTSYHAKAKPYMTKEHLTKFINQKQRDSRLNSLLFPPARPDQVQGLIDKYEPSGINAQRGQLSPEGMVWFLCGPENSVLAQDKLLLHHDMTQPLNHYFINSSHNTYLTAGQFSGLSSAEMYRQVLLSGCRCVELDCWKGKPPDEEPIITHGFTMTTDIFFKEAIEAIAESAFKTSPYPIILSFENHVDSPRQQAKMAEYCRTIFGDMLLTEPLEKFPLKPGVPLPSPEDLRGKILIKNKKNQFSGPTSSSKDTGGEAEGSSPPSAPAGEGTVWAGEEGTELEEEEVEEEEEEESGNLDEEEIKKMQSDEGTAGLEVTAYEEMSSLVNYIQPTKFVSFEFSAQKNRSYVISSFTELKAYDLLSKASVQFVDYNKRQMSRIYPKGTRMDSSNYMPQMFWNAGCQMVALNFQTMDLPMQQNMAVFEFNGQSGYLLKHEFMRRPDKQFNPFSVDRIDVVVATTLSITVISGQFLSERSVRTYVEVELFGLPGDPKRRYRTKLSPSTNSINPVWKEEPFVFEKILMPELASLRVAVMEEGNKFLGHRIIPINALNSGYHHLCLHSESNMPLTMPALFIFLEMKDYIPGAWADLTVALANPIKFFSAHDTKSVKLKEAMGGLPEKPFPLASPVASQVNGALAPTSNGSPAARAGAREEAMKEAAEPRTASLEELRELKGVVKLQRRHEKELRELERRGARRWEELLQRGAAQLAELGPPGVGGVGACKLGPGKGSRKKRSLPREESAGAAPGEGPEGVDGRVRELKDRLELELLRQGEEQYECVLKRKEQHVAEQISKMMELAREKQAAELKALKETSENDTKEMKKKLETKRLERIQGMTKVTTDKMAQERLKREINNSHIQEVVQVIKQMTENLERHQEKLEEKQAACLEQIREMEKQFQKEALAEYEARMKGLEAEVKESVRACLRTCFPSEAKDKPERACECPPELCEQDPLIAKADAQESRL
- ASSAY_NAME: PLC assay using FlashPlates (immobilized [3H]PIP2 substrate, 96-well)
- Format: biochemical
- EXPERIMENTAL_CONTEXT: hydrolysis of immobilized [3H]PIP2; purified recombinant human PLC-β2 or cytosolic human PLC-β2
READOUT_LABEL: IC50 (µM)

MOLECULE	READOUT_LABEL	UNITS_OF_MEASURE	QUALIFIER_SYMBOL	OBSERVED
O=C(c1ccc(N2CCN(C(c3ccccc3)c3ccccc3)CC2)c(NS(=O)(=O)c2ccc(Cl)cc2)c1)N1CCNCC1 [Cpd 6]	IC50	µM	=	8.7
O=C(Nc1cc(C(=O)N2CCNCC2)ccc1N1CCN(C(c2ccccc2)c2ccccc2)CC1)c1ccco1 [Cpd 3]	IC50	µM	=	21.6
Cc1ccc(S(=O)(=O)Nc2cc(C(=O)N3CCNCC3)ccc2N2CCN(C(c3ccccc3)c3ccccc3)CC2)cc1 [Cpd 5]	IC50	µM	=	10.8
CS(=O)(=O)Nc1cc(C(=O)N2CCNCC2)ccc1N1CCN(C(c2ccccc2)c2ccccc2)CC1 [Cpd 8]	IC50	µM	=	9.8
Cc1ccc(C(=O)Nc2cc(C(=O)N3CCNCC3)ccc2N2CCN(C(c3ccccc3)c3ccccc3)CC2)cc1 [Cpd 1]	IC50	µM	=	12.6
CCCCS(=O)(=O)Nc1cc(C(=O)N2CCNCC2)ccc1N1CCN(C(c2ccccc2)c2ccccc2)CC1 [Cpd 7]	IC50	µM	>	25
CCC(=O)Nc1cc(C(=O)N2CCNCC2)ccc1N1CCN(C(c2ccccc2)c2ccccc2)CC1 [Cpd 4]	IC50	µM	>	25
